# Procedure details: gradient 5% acetonitrile 3 min, to 50% in 2 min, to 85% in 15 min, held 3 min, 100 µL/min
# Test conditions: column: Zorbax Extend-C18 2.1 x 50 mm; eluents: water / acetonitrile, 0.1% formic acid
Experimental endpoint: RP-LC retention time

// query Supply RP-LC retention time value. Item: Cc1ccc(-n2c(N3CCCC(C(=O)NC(C)c4ccc(F)cc4)C3)nc3ccsc3c2=O)cc1 (stereo not drawn)
// result 959 s

// query Supply RP-LC retention time value. Item: `Cc1cc(=O)n(Cc2cccc(Br)c2)c(Nc2ccc(F)c(F)c2)n1`
// result 1270 s

// query Supply RP-LC retention time value. Item: `CCCN1CCN(c2ccc(-c3nc(-c4ccc(C)cc4)no3)cn2)CC1`
// result 750 s

// query Supply RP-LC retention time value. Item: COc1ccc(-c2nnc(N3CCC(C(=O)NC(C)c4ccc(C)cc4C)CC3)o2)cc1 (stereo not drawn)
// result 934 s

// query Supply RP-LC retention time value. Item: `CCN(CC)CCOCCOC(=O)C1(c2ccccc2)CCCC1`
// result 810 s

// query Supply RP-LC retention time value. Item: `COc1cccc(-c2nnc(N)o2)c1`
// result 674 s

// query Supply RP-LC retention time value. Item: `CC(C)Cc1noc(C2(F)CCN(S(=O)(=O)c3ccc(C(C)(C)C)cc3)CC2)n1`
// result 601 s

// query Supply RP-LC retention time value. Item: CCN(CC)S(=O)(=O)c1ccc2c(c1)N(CC(=O)NCCOC)C(=O)C1CCCCN21 (stereo not drawn)
// result 788 s

// query Supply RP-LC retention time value. Item: `Cc1cccc(-n2ccnc(SCC(=O)Nc3cc(Cl)ccc3C)c2=O)c1`
// result 915 s

// query Supply RP-LC retention time value. Item: `COc1ccc(NS(=O)(=O)c2ccc3c(c2)C(=O)N(C)c2ncccc2O3)cc1`
// result 844 s

// query Supply RP-LC retention time value. Item: `CC1(C(=O)NCc2ccccc2)CCN(S(=O)(=O)c2ccc(Br)cc2)CC1`
// result 961 s

// query Supply RP-LC retention time value. Item: `COc1ccc(OC)c(CNC(=O)Cc2cccn2-c2ccc(C)cc2)c1`
// result 750 s

// query Supply RP-LC retention time value. Item: `COc1ccc(NC(=O)Cn2c(C)cc(-c3nnc(-c4ccco4)o3)c2C)cc1Cl`
// result 903 s

// query Supply RP-LC retention time value. Item: `Cc1ccc(-c2noc(Cn3c(=O)n(C(C)C)c(=O)c4ccccc43)n2)cc1C`
// result 1220 s

// query Supply RP-LC retention time value. Item: CCOC(=O)c1ccc(NC(=O)Cn2cnc3nc(N4CCCC(C(=O)NC)C4)sc3c2=O)cc1 (stereo not drawn)
// result 658 s

// query Supply RP-LC retention time value. Item: `Cn1cccc(C(=O)N2CCC(CNC(=O)c3ccc(Cl)s3)CC2)c1=O`
// result 610 s

// query Supply RP-LC retention time value. Item: `Cc1ccc(-c2nnc(-c3nc(NCCc4c(C)noc4C)c4ccccc4n3)o2)cc1`
// result 955 s

// query Supply RP-LC retention time value. Item: CCOc1ccc(C2Cn3nnc(-c4nc(C5CCCCC5)no4)c3CO2)cc1 (stereo not drawn)
// result 1290 s

// query Supply RP-LC retention time value. Item: `COC(=O)c1c2c(nc3ccccc13)CCN(C(=O)Nc1cc(OC)ccc1OC)C2`
// result 839 s

// query Supply RP-LC retention time value. Item: `Nc1cc(=O)nc(SCC(=O)NC2CCCCC2)n1-c1cccc(C(F)(F)F)c1`
// result 649 s

// query Supply RP-LC retention time value. Item: `COc1ccc(C2CC(=O)N(c3ccc(F)c(Cl)c3)C(=O)C2)cc1`
// result 980 s

// query Supply RP-LC retention time value. Item: `CCc1ccc(NC(=O)N2CC(n3cnnc3C3CCOCC3)C2)cc1`
// result 599 s

// query Supply RP-LC retention time value. Item: `COC(=O)c1ccc2c(=O)n(-c3cccc(C)c3)c(N3CCN(c4ccccn4)CC3)nc2c1`
// result 726 s

// query Supply RP-LC retention time value. Item: `Cc1ccc(NC(=O)N2CCC(n3cnc4ccc(C)cc4c3=O)CC2)cc1`
// result 801 s

// query Supply RP-LC retention time value. Item: `CCOc1ccc(-n2c(=O)c3sccc3n(Cc3nc(-c4ccc(Cl)c(F)c4)no3)c2=O)cc1`
// result 1140 s

// query Supply RP-LC retention time value. Item: O=C(NCCCc1ccccc1)C1CCCN(C(=O)Cc2cccc3ccccc23)C1 (stereo not drawn)
// result 944 s

// query Supply RP-LC retention time value. Item: `COCC(=O)N1CC2CN(S(=O)(=O)c3cccc(F)c3)CC(C1)O2`
// result 660 s

// query Supply RP-LC retention time value. Item: `COc1ccc(OC)c(NC(=O)Cn2c(=O)nc(N3CCC(C)CC3)c3ccccc32)c1`
// result 859 s

// query Supply RP-LC retention time value. Item: `CO[C@H]1C(=O)N(C2CCN(S(=O)(=O)C(C)C)CC2)[C@H]1c1ccncc1`
// result 569 s

// query Supply RP-LC retention time value. Item: `Cc1nn(CC(=O)NCCc2c[nH]c3ccc(Cl)cc23)c(=O)c2c(C)n(-c3ccccc3)nc12`
// result 908 s

// query Supply RP-LC retention time value. Item: `COc1ccccc1CNC1=NCCNC12CCN(S(=O)(=O)c1ccc(F)cc1)CC2`
// result 704 s

// query Supply RP-LC retention time value. Item: Cc1nc(C2CC23CCN(S(=O)(=O)c2cccc(F)c2)CC3)no1 (stereo not drawn)
// result 888 s

// query Supply RP-LC retention time value. Item: `O=C(OCCN1CCCCC1)c1c[nH]c2ccccc12`
// result 666 s

// query Supply RP-LC retention time value. Item: `Cc1ccc(-c2ncc(NC(=O)c3ccc(Cl)s3)cn2)cc1`
// result 1140 s

// query Supply RP-LC retention time value. Item: `COc1cccc(Cn2c(=O)c3sccc3n(Cc3nc(-c4ccccc4Cl)no3)c2=O)c1`
// result 1080 s

// query Supply RP-LC retention time value. Item: `Cc1ccc2c(C(=O)NCCc3cccnc3)cc(NC(=O)C(C)C)cc2n1`
// result 550 s

// query Supply RP-LC retention time value. Item: CS(=O)(=O)N1CCCC(c2nnc(-c3ccccc3F)s2)C1 (stereo not drawn)
// result 757 s

// query Supply RP-LC retention time value. Item: COC(=O)c1cc(S(=O)(=O)N2CCCC2C(=O)NCc2ccc(Cl)cc2)cn1C (stereo not drawn)
// result 865 s
